We begin with a simple list: items and their reported IC50.
biological target: A1 receptor (Rattus norvegicus); construct: using a membrane preparation of whole rat brain; from tissue; host or cells: whole rat brain membranes; assay: A1 adenosine receptor binding, displacement of 3H-CHA, whole rat brain membranes; conditions: 3H-CHA displacement, 25° C., 60 minutes
Sequence (P25099 whole entry): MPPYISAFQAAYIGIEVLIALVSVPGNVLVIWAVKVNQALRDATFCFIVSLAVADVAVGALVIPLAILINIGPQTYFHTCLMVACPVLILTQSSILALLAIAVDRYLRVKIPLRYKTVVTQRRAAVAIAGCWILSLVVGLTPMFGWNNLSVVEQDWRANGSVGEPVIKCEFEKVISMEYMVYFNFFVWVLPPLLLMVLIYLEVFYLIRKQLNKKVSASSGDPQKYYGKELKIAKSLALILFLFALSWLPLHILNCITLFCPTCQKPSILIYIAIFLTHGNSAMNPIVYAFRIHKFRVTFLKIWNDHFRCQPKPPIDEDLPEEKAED
Numeric only. Scale: nM

Would you please look over these solved cases?
compound: CCNC(=O)[C@H]1C[C@@H](n2cnc3c(N[C@H](CC)Cc4ccc(Cl)s4)ccnc32)[C@H](O)[C@@H]1O [Example 41]
result unit: nM
IC50: 14.2
--
compound: OC[C@H]1O[C@@H](n2cnc3c(NCc4nc(-c5ccccc5)cs4)ncnc32)[C@H](O)[C@@H]1O [Example 19]
result unit: nM
IC50: 36
--
compound: CCNC(=O)[C@H]1C[C@@H](n2cnc3c(NCCc4cccs4)ccnc32)[C@H](O)[C@@H]1O (racemic) [Example 30]
result unit: nM
IC50: 562
--
compound: CCC(Cc1ccc(Cl)s1)Nc1ncnc2c1ncn2[C@@H]1O[C@H](CO)[C@@H](O)[C@H]1O (stereo partly shown) [Example 21]
result unit: nM
IC50: 0.09

Param item = CCNC(=O)[C@H]1O[C@@H](n2cnc3c(NC4CC=CCC4c4cccs4)ncnc32)[C@H](O)[C@@H]1O (single isomer, unassigned) [Example 22] ; retrieve measured IC50. 2.69

And what about the compound CCNC(=O)[C@H]1C[C@@H](n2cnc3c(N[C@H](C)Cc4ccc(Cl)s4)[n+]([O-])cnc32)[C@H](O)[C@@H]1O [Example 35] ? 1090

And what about the compound C[C@H](Cc1cc2ccccc2s1)Nc1ncnc2c1ncn2[C@@H]1O[C@H](CO)[C@@H](O)[C@H]1O [Example 15] ? 4.07

====

target: A1 receptor (Rattus norvegicus); construct: using a membrane preparation of whole rat brain; from tissue; host or cells: whole rat brain membranes; assay: A1 adenosine receptor binding, displacement of 3H-CHA, whole rat brain membranes; conditions: 3H-CHA displacement, 25° C., 60 minutes
# label = Fulfilled if IC50 < 10 nM else Not fulfilled

molecule: CCNC(=O)[C@H]1C[C@@H](n2cnc3c(NC(Cc4cccs4)C(C)C)ccnc32)[C@H](O)[C@@H]1O (some centres unmarked) [Example 38]
system name: A1 receptor (Rattus norvegicus)
cat: Fulfilled
//
molecule: CCNC(=O)C1CC(n2cnc3c(NCCc4ccsc4)ncnc32)C(O)C1O (racemic) [Example 28]
system name: A1 receptor (Rattus norvegicus)
cat: Not fulfilled
//
molecule: CCNC(=O)[C@H]1C[C@@H](n2cnc3c(N[C@H](C)Cc4ccc(Cl)s4)ncnc32)[C@H](OC(=O)NC)[C@@H]1OC(=O)NC [Example 45]
system name: A1 receptor (Rattus norvegicus)
cat: Not fulfilled
//
molecule: OC[C@H]1O[C@@H](n2cnc3c(NCCNc4nc5ccccc5s4)ncnc32)[C@H](O)[C@@H]1O [Example 9]
system name: A1 receptor (Rattus norvegicus)
cat: Fulfilled
//
molecule: CCNC(=O)C1CC(n2cnc3c(NCCc4nccs4)ncnc32)C(O)C1O (racemic) [Example 25]
system name: A1 receptor (Rattus norvegicus)
cat: Not fulfilled
//
molecule: CCNC(=O)C1CC(n2cnc3c(NC(C)Cc4cccs4)ncnc32)C(O)C1O (single isomer, unassigned; (-)) [Example 27]
system name: A1 receptor (Rattus norvegicus)
cat: Fulfilled
//
molecule: CCNC(=O)[C@H]1O[C@@H](n2cnc3c(NCCNc4nc5ccccc5s4)ncnc32)[C@H](O)[C@@H]1O [Example 23]
system name: A1 receptor (Rattus norvegicus)
cat: Fulfilled
//
molecule: CCNC(=O)[C@H]1C[C@@H](n2cnc3c(NC(CC)Cc4sccc4Cl)ccnc32)[C@H](O)[C@@H]1O (some centres unmarked) [Example 37]
system name: A1 receptor (Rattus norvegicus)
cat: Not fulfilled
//
molecule: CCNC(=O)[C@H]1C[C@@H](n2cnc3c(N[C@H](C)Cc4ccc(Cl)s4)ncnc32)[C@@H]2OC(OCC)O[C@@H]21 (some centres unmarked) [Example 43]
system name: A1 receptor (Rattus norvegicus)
cat: Not fulfilled
//
molecule: CCNC(=O)[C@H]1C[C@@H](n2cnc3c(N[C@H](C)Cc4ccc(Cl)s4)ncnc32)[C@@H]2OC(=S)O[C@@H]21 [Example 46]
system name: A1 receptor (Rattus norvegicus)
cat: Not fulfilled

Here's an entry: CCNC(=O)C1CC(n2cnc3c(NC(CC)Cc4sccc4Cl)ccnc32)C(O)C1O (single isomer, unassigned) [Example 39] . Is its IC50 below 10 nM? Fulfilled

And what about the molecule CCC(Cc1sccc1Cl)Nc1ncnc2c1ncn2[C@@H]1O[C@H](CO)[C@@H](O)[C@H]1O (some centres unmarked) [Example 31] ? Fulfilled

And what about the molecule OC[C@H]1O[C@@H](n2cnc3c(NCCSc4nc5ccccc5s4)ncnc32)[C@H](O)[C@@H]1O [Example 10] ? Fulfilled

And what about the molecule OC[C@H]1O[C@@H](n2cnc3c(NCCc4nccs4)ncnc32)[C@H](O)[C@@H]1O [Example 13, N^6-[2-(2′-thiazolyl)ethyl]-adenosine] ? Not fulfilled
